System: B16 melanoma
Assay: B16 melanoma implanted sc, drug iv (sc-iv) in BDF1 mice
Type: in vivo
Conditions: B16 sc implanted, drug iv day 1
Numbered stars: 1 amine (or outer) side, 2 acyl side, 3 side chain; on linkers, the order of the positions; unused ones are H or OH. Bridge positions count the residues as written; N and C are the ends. Square brackets hold non-standard residues; d marks the D form. Peptide text beside a SMILES is read from it. I, II: the chains in the order shown. Actinocin(9to1) = Cc1c2oc3c(C)ccc(C(=O)[*:1])c3nc-2c(C(=O)[*:2])c(N)c1=O; NMeV = CN[C@H](C(=O)O)C(C)C; Sar = CNCC(=O)O
recorded_endpoint: MST (median survival time) (days)

compound: Cc1c2oc3c(C)c(OCC4CO4)cc(C(=O)NC4C(=O)NC(C(C)C)C(=O)N5CCCC5C(=O)N(C)CC(=O)N(C)C(C(C)C)C(=O)OC4C)c3nc-2c(C(=O)NC2C(=O)NC(C(C)C)C(=O)N3CCCC3C(=O)N(C)CC(=O)N(C)C(C(C)C)C(=O)OC2C)c(N)c1=O [(R)-(+)-EPA, 7-(2,3-epoxypropoxy) actinomycin D]
value_reported: 56.0

compound: Cc1c2oc3c(C)c(OCC4CO4)cc(C(=O)NC4C(=O)NC(C(C)C)C(=O)N5CCCC5C(=O)N(C)CC(=O)N(C)C(C(C)C)C(=O)OC4C)c3nc-2c(C(=O)NC2C(=O)NC(C(C)C)C(=O)N3CCCC3C(=O)N(C)CC(=O)N(C)C(C(C)C)C(=O)OC2C)c(N)c1=O (racemic) [3b[(±)-EPA]] [7-(2,3-epoxypropoxy) actinomycin D]
value_reported: 54.0

compound: COc1cccc2c1C(=O)c1c(O)c3c(c(O)c1C2=O)C[C@@](O)(C(=O)CO)C[C@@H]3O[C@H]1C[C@H](N)[C@H](O)[C@H](C)O1 [adriamycin, reference compound]
value_reported: 59.0

compound: Cc1c2oc3c(C)ccc(C(=O)N[C@@H]4C(=O)N[C@H](C(C)C)C(=O)N5CCC[C@H]5C(=O)N(C)CC(=O)N(C)[C@@H](C(C)C)C(=O)O[C@@H]4C)c3nc-2c(C(=O)N[C@@H]2C(=O)N[C@H](C(C)C)C(=O)N3CCC[C@H]3C(=O)N(C)CC(=O)N(C)[C@@H](C(C)C)C(=O)O[C@@H]2C)c(N)c1=O [1b(AMD), Actinomycin D] (I: T[dV]P[Sar][NMeV] / II: T[dV]P[Sar][NMeV]; ester I:1-I:C, II:1-II:C; linker I:N-II:N via Actinocin(9to1))
value_reported: 45.0

compound: Cc1c2oc3c(C)c(OCC4CO4)cc(C(=O)NC4C(=O)NC(C(C)C)C(=O)N5CCCC5C(=O)N(C)CC(=O)N(C)C(C(C)C)C(=O)OC4C)c3nc-2c(C(=O)NC2C(=O)NC(C(C)C)C(=O)N3CCCC3C(=O)N(C)CC(=O)N(C)C(C(C)C)C(=O)OC2C)c(N)c1=O [(S)-(-)-EPA, 7-(2,3-epoxypropoxy) actinomycin D]
value_reported: 53.0
